Please respond with reported inhibition for every item in the list.
Molecular target: Bcl-2-like protein 10 (Homo sapiens)
Experiment: inhibitors of Bim-Bcl-B binding, primary screen, biochemical, multiplexed, human Bcl-2 family (AID 951);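 note: 0% = tracer peptide without compound and 100% = reference inhibitor peptide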
Settings: bead-based flow cytometry, Bim peptide-Bcl-B binding; at 10 µM; hits give high values
Screen size: about 190,000 compounds; about 140 (0.074%) were called active. What follows is part of a selection rich in actives, with near analogues and random picks from the rest.
Numbers only, in %.

Please give inhibition for each item listed below.
1. Cc1cc(C)n(CC(=O)Nc2ccc([N+](=O)[O-])cc2)n1
2. CCOCC(=O)Nc1ncc(S(=O)(=O)c2ccc([N+](=O)[O-])cc2)s1
3. CCC(C(=O)OCC(=O)Nc1c(Cl)cc(Cl)cc1Cl)c1ccccc1 (stereo unspecified)
4. O=C(CNC(c1ccccc1)c1ccccc1)Nc1ccc(F)cc1
5. O=C(N/N=C/c1cc2c(cc1Br)OCO2)C1COc2ccccc2O1 (stereo unspecified)
6. COc1ccccc1C1CC(=O)n2c(nc(-c3ccccc3)c2-c2ccccc2)S1 (stereo unspecified)

Result string:
0
3
-7
-8
1
-4

The values you see were collected from PubChem BioAssay AID951.
